tested on: M. tuberculosis H37Rv growth inhibition, 7H9 media; assay: M. tuberculosis growth inhibition, HTS (AID 449762); conditions: measured here: IC90 growth inhibition;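 further: bacterial growth assessed after seven days of incubation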
Results filed as inconclusive are left out.
PARAMETER MEASURED: IC90

The examples below pair each entry with its known result.
| SUBSTANCE SMILES | PARAMETER MEASURED | RECORDED VALUE |
| --- | --- | --- |
| O=c1cc(/C=C/c2ccccc2)oc2ccccc12 | IC90 | > 100 µM |
| O=[N+]([O-])c1ccc(CN2CCN(c3ccc(Cl)cc3)CC2)o1 | IC90 | < 0.2 µM |

Entry CCCCCCSc1nsc(NC(=O)CC(C)C)n1 : reported IC90 = ?
> 100 µM
